Test system: wheat
Test Description: Test C postemergence
Format: in vivo, Triticum aestivum
Details: 500 g ai/ha, postemergence, 10 days, 0 to 100 scale (0 no effect, 100 complete control)
Measured Quantity: Plant response rating, Wheat
One number for each entry.

Solved cases (6 shown):
> print(dat)
                                   compound  assayed.target  test.value
1  COc1ccc(-n2cnc(C3CC3)n2)cc1C(=O)N1C[C@H](C)Oc2c(Cl)cccc21 [Compound 324]           wheat          30
2  CCOC[C@H]1CN(C(=O)c2cc(-n3cnc(C(C)C)n3)ccc2C)c2cccc(Cl)c2O1 [Compound 340]           wheat          30
3  CCOC(=O)c1ncn(-c2ccc(C)c(C(=O)N3C[C@H](C)Oc4c(Cl)cccc43)c2)n1 [Compound 342]           wheat          80
4  Cc1cccc2c1O[C@@H](C)CN2C(=O)c1cc(-n2cnc(C(C)C)n2)cc2c1CCO2 [Compound 392]           wheat          60
5  C[C@H]1CN(C(=O)c2cccc(-n3cnc(OS(C)(=O)=O)n3)c2)c2cccc(Cl)c2O1 [Compound 356]           wheat          20
6  Cc1ncn(-c2ccc(F)c(C(=S)N3C[C@H](C)Oc4c(C)cccc43)c2)n1 [Compound 362]           wheat          60

Next, consider the following compound.
Query: Plant response rating, Wheat for Cc1ccc(-n2cnc(C(C)C)n2)cc1C(=O)N1CC(C(F)(F)F)Oc2c(Cl)cccc21 (single isomer, unassigned) [Compound 292] ?
Result: 30

====

Tested on: blackgrass
Test Description: Test C preemergence
Type: in vivo, Alopecurus myosuroides
Details: Test C, preemergence, 125 g ai/ha; 0 to 100 scale (0 no effect, 100 complete control)
Measured Quantity: Blackgrass plant response rating

Solved cases (3 shown):
> print(dat)
                                   molecule  test.value
1  CCOCc1ncn(-c2ccc(C)c(C(=O)N3C[C@H](C)Oc4c(Cl)cccc43)c2)n1          70
2  CCc1ncn(-c2ccc(C)c(C(=O)N3CC(C(F)(F)F)Oc4c(Cl)cccc43)c2)n1 (single isomer, unassigned)          40
3  Cc1cn(-c2cccc(C(=O)N3C[C@H](C)Oc4c(C)cccc43)c2)cn1           0

Next, consider the following molecule.
Query: Entry CCc1c(C)cc(-n2cnc(C(C)C)n2)cc1C(=O)N1C[C@H](C)Oc2c(Cl)cccc21 , system blackgrass: what Blackgrass plant response rating was measured?
Result: 0

====

Could you please report measured Plant response rating, Kochia for the items listed next?
System: kochia
Test Description: Test C preemergence
Assay type: in vivo, Bassia scoparia
Details: Preemergence, 500 g ai/ha; visual rating after 10 days, 0 to 100 scale (0 no effect, 100 complete control)
Give bare numbers.

Solved cases (3 shown):
> print(dat)
                               input.smiles  test.value
1  C[C@H]1CN(C(=O)c2cc(-n3cnc(C4CCC4)n3)cc3c2OCCO3)c2cccc(Cl)c2O1          90
2  Cc1ccc(-n2cnc(C3(C)CC3)n2)cc1C(=O)N1C[C@H](C)Oc2c(Cl)cccc21         100
3  Cc1cccc2c1O[C@@H](C)CN2C(=O)c1cc(-n2cnc(C(C)C)n2)cc2occc12         100

Query: Plant response rating, Kochia for CC(C)c1ncn(-c2cc3c(c(C(=O)N4C[C@H](C)Oc5c(Cl)cccc54)c2)CCC3)n1 ?
Result: 90

====

Test system: ryegrass, Italian
Test Description: Test C postemergence
Type: in vivo, Lolium multiflorum
Details: Postemergence, 1000 g ai/ha, 10 days, visual 0 to 100 scale (0 no effect, 100 complete control)
Measured Quantity: Plant response rating, Ryegrass, Italian
One number for each entry.

Solved cases (4 shown):
> print(dat)
                                   compound                         measured.quantity  test.value
1  COc1ccc(-c2cccc(C(=O)N3C[C@H](C)Oc4c(Cl)cccc43)c2)cn1  Plant response rating, Ryegrass, Italian          10
2  Cc1cc(-c2cccc(C(=O)N3C[C@H](C)Oc4c(C)cccc43)c2)cnn1  Plant response rating, Ryegrass, Italian           0
3  Cc1cccc2c1O[C@@H](C)CN2C(=O)c1cccc(-c2cn(C)nn2)c1  Plant response rating, Ryegrass, Italian           0
4  Cc1nccc(-c2cccc(C(=O)N3C[C@H](C)Oc4c(C)cccc43)c2)n1  Plant response rating, Ryegrass, Italian          40

# per-item lookup of Plant response rating, Ryegrass, Italian; items listed below
1. Cc1cc(-c2cccc(C(=O)N3C[C@H](C)Oc4c(C)cccc43)c2)cs1
2. Cc1cccc2c1O[C@@H](C)CN2C(=O)c1cccc(-n2cncc2C#N)c1

Result:
1. 0
2. 10

Query: Plant response rating, Ryegrass, Italian for CCC1CN(C(=O)c2ccnc(-c3cccnc3)c2)c2cccc(Cl)c2O1 (racemic) ?
Result: 0

====

Tested on: blackgrass
Test Description: Test C postemergence
Type: in vivo, Alopecurus myosuroides
Details: Postemergence, 500 g ai/ha, 10 days, visual 0 to 100 scale (0 no effect, 100 complete control)
Measured Quantity: Plant response rating, Blackgrass
Give bare numbers.

Solved cases (2 shown):
> print(dat)
                                   molecule  test.value
1  CC(C)c1ncn(-c2ccc([S+]([O-])C(F)(F)F)c(C(=O)N3C[C@H](C)Oc4c(Cl)cccc43)c2)n1 (stereo partly shown)           0
2  COc1ccc(-n2cncn2)cc1C(=O)N1C[C@H](C)Oc2ccccc21          90

# per-item lookup of Plant response rating, Blackgrass; items listed below
1. COC[C@H]1CN(C(=O)c2cccc(-n3cnc(C(C)(C)O)n3)c2)c2cccc(Cl)c2O1
2. Cc1ccc(-n2cnc(C(C)(F)F)n2)cc1C(=O)N1C[C@H](C)Oc2c(Cl)cccc21
3. Cc1ccc(-n2cnc(C(C)C)n2)cc1C(=O)N1C[C@H](C)Oc2c(F)cccc21
4. Cc1cccc2c1O[C@@H](C)CN2C(=O)c1cc(-n2cnc(C(C)C)n2)cc2ccoc12

Result:
80
100
100
80

# per-item lookup of Plant response rating, Blackgrass; items listed below
1. Cc1ccc(-n2cnc(C[S+](C)[O-])n2)cc1C(=O)N1C[C@H](C)Oc2c(Cl)cccc21 (stereo partly shown)
2. Cc1cn(-c2cccc(C(=O)N3C[C@H](C)Oc4c(C)cccc43)c2)cn1
3. Cc1cccc2c1O[C@@H](C)CN2C(=O)c1cccc(-n2cnc(N(C)C)n2)c1
4. COc1ccc(-n2cnc(C(C)(C)O)n2)cc1C(=O)N1C[C@H](C)Oc2c(Cl)cccc21
5. Cc1ccc(-n2cnc(C3(C(F)(F)F)CCC3)n2)cc1C(=O)N1C[C@H](C)Oc2c(Cl)cccc21

Result:
1. 70
2. 50
3. 90
4. 90
5. 0

# per-item lookup of Plant response rating, Blackgrass; items listed below
1. CCc1ncn(-c2cc3c(c(C(=O)N4C[C@H](C)Oc5c(Cl)cccc54)c2)OCCO3)n1
2. COc1c(C)cc(-n2cnc(C(C)C)n2)cc1C(=O)N1C[C@H](C)Oc2c(Cl)cccc21
3. CCc1ncn(-c2ccc(OC)c(C(=O)N3C[C@H](C)Oc4c(C)cccc43)c2)n1
4. CCc1ccc(-n2cnc(C(C)(C)O)n2)cc1C(=O)N1C[C@H](C)Oc2c(Cl)cccc21
5. COc1cc(C(=O)N2C[C@H](C)Oc3c(Cl)cccc32)cc(-n2cnc(C(C)(C)C)n2)c1

Result:
[100, 30, 100, 90, 70]

====

Could you please report measured Plant response rating, Galium for the items listed next?
Tested on: galium
Test Description: Test C postemergence
Format: in vivo, Galium aparine
Details: 125 g ai/ha, postemergence, 10 days; 0 to 100 scale, 0 no effect, 100 complete control
Numbers only.

> print(dat)
                               input.smiles  test.value
1  CCn1cnc(-c2cccc(C(=O)N3C[C@H](C)Oc4c(Cl)cccc43)c2)n1          20
2  Cc1ccc(-n2cnc(C3(C(F)(F)F)CC3)n2)cc1C(=O)N1C[C@H](C)Oc2c(Cl)cccc21          90
3  CCc1ncn(-c2ccc(C)c(C(=O)N3C[C@H](COC)Oc4c(Cl)cccc43)c2)n1         100
4  CSCc1ncn(-c2ccc(C)c(C(=O)N3C[C@H](C)Oc4c(Cl)cccc43)c2)n1         100

Query: Plant response rating, Galium for COC[C@H]1CN(C(=O)c2cc(-n3cnc(C4CCC4)n3)ccc2C)c2cccc(Cl)c2O1 ?
Result: 100

Sourced from patent US20260262643A1
